// data source = paper PMC3653324

tested on: H4IIE cells; assay: CeeTox cellular ATP content; details: 24 hr
recorded-metric: ATP TC50 (µM)
Write the value in µM as a bare number.

Tell me the measured ATP TC50 of O=c1c(O)c(-c2ccc(O)c(O)c2)oc2c1ccc1ccccc12 [CSMC-6, 3,3',4'-trihydroxy alpha-naphthoflavone] , please.
81

Tell me the measured ATP TC50 of "COc1cc(-c2oc3cc(C)c(C)cc3c(=O)c2O)ccc1O" , please.
78

Tell me the measured ATP TC50 of CCc1ccc2oc(-c3ccc(O)c(O)c3)c(O)c(=O)c2c1 [CSMC-9, 6-ethyl-3,3',4'-trihydroxy flavone] , please.
80
